measurementTarget: T1, lecithin:cholesterol acyltransferase (LCAT), purified from human plasma (human, UniProt P04180 25-440)
T1 sequence (looked up): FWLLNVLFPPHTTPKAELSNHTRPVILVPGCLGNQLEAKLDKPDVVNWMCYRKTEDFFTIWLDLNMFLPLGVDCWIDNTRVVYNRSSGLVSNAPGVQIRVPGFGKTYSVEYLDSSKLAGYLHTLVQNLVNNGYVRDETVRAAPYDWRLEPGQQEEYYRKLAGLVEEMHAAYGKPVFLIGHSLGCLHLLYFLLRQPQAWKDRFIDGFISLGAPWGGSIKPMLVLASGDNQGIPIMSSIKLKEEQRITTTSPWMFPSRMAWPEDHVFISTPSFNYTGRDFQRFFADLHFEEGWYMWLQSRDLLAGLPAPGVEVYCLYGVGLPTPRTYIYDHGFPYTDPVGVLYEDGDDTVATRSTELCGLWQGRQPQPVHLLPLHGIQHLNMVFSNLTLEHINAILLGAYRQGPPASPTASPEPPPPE
assayProtocol: cell-based or functional assay
Non-standard residues stand in square brackets, D forms with d. No end group written: not given here. Nal = naphthylalanine (isomer not specified); Aib = CC(C)(N)C(=O)O
property: ACTIVITY (%) LCAT

Check out these entries, answers already filled in.
| binder | ACTIVITY (%) LCAT |
| --- | --- |
| PVLDEFREKLNE[Aib]LWALKQKLK [peptide 89] | 6 |
| GVLDLFRELLNEGLEALKQKLK [peptide 13] | 67 |
| PVLDLFRELLWE[Aib]LEALKQKLK [peptide 50] | 21 |
| PVLDLFRELLNEL[Nal]EALKQKLK (not fully specified) [peptide 27] | 44 |
| PLLELFENLLERLLDALQKKLK [peptide 150] | 57 |
| PVLDLFRELLNE[Aib]LWALKQKLK [peptide 72] | 11 |
| GVLELFENLLERLLDALQKKLK [peptide 145] | 100 |
| Ac-PVLDFFRELLEELKQKLK-NH2 [peptide 204] | 63 |
| PVLDLLRELLNELLEALKQKLK [peptide 16] | 59 |
| PVLDAFRELLEALAQLKK [peptide 223] | 8 |

(1) Ac-PALELFKDLLEELRQKLR-NH2 [peptide 202]
(2) PVLDEFREKLNEELEWLKQKLK [peptide 122]
(3) PVLDLFREWLNELLEALKQKLK [peptide 37]
(4) PVLELFENLLERWLDALQKKLK [peptide 181]
(5) Ac-PVLDLFKELLEELKQKLK-NH2 [peptide 192]
Query: Hello, I need these entries ordered by ACTIVITY (%) LCAT, highest reading first. Thanks! Reply: labels, ordered per the request.
Response: 5, 1, 3, 4, 2
(5: 100%, 1: 70%, 3: 29%, 4: 8%, 2: 0%)

(P) Ac-PVLDLFREWLEELKQKLK-NH2 [peptide 205]
(Q) Ac-PVLDLFRELLEEGKQKLK-NH2 [peptide 229]
(R) PVLDEFREKLNK[Aib]LEALKQKLK [peptide 77]
(S) PAADAFREAANEAAEAAKQKAK [peptide 105]
Query: Ordering: ascending ACTIVITY (%) LCAT. Reply: labels, ordered per the request.
Response: Q, S, R, P

(A) PKLDEFREKLNE[Aib]LEALKQKLK [peptide 115]
(B) PVLELFDNLLEKLLEALQKKLR [peptide 178]
(C) GVLDLFRELLNELLEALKQKLK [peptide 18]
Query: Hello, I need these entries ordered by ACTIVITY (%) LCAT, highest reading first. Thanks! Reply: labels, ordered per the request.
Response: C, B, A
(C: 58%, B: 9%, A: 0%)
